experiment: Cmax in ICR (CD-1) mouse at 20 mg/kg, po via gavage by mass spectrometric method; type: ADME, organism-based; design: dose 20 mg/kg, route oral; conditions: in vivo
PARAMETER_MEASURED: Cmax (ng/mL)

I: Cc1ccc(NC(=O)c2ccc3c(c2)N(C2CC2)C(C)C(=O)N3C)c(C)c1 (configuration not stated)
II: Cc1ccc2c(c1)CCN2C(=O)c1ccc2c(c1)N(C1CC1)C(C)C(=O)N2C (configuration not stated)
In: Thinking about recorded Cmax values, which is higher, I or II ? Answer by stating the label of the chosen item.
Out: I

###

experiment: Cmax in ICR (CD-1) mouse at […], po via gavage by mass spectrometric method; type: ADME, organism-based; conditions: in vivo
PARAMETER_MEASURED: Cmax (ng/mL)
The answer is to be given in ng/mL; state only the numeric part.

// recorded Cmax for Cc1ccc2c(c1)CCN2C(=O)c1ccc2c(n1)N(C1CC1)C(C)C(=O)N2C (stereo unspecified) : 189
